- Tested on: Human neural stem cells (hNSCs)
- EXPERIMENT_NOTES: Neuronal differentiation of human neural stem cells (TUJ-1 staining), concentration response and combination index
- Type: cell-based
- PARTICULARS: Homo sapiens, Neural stem cell, Table 2; D-cycloserine alone, run with the ratio of that row; read-out: Solo EC50's D-cycloserine
MEASURED_ENDPOINT: pEC50
The meaning of pEC50 here: minus log10 of the concentration in molar units.

Recorded pEC50 of `N[C@@H]1CONC1=O` , please.
5.25

###

- Tested on: Human neural stem cells (hNSCs)
- EXPERIMENT_NOTES: Neuronal differentiation of human neural stem cells (TUJ-1 staining), concentration response and combination index
- Type: cell-based
- PARTICULARS: Homo sapiens, Neural stem cell, Table 1; pindolol alone, run with the ratio of that row; read-out: Solo EC50's Pindolol
MEASURED_ENDPOINT: EC50 (µM)
Write it as a number; the unit µM goes unstated.

Recorded EC50 of CC(C)NCC(O)COc1cccc2[nH]ccc12 (stereo not shown) [Pindolol] , please.
1.43
